Molecular target: GPR40 of human origin (Homo sapiens, UniProt O14842)
Construct: expressed in transfected cells
Sequence (O14842 whole entry): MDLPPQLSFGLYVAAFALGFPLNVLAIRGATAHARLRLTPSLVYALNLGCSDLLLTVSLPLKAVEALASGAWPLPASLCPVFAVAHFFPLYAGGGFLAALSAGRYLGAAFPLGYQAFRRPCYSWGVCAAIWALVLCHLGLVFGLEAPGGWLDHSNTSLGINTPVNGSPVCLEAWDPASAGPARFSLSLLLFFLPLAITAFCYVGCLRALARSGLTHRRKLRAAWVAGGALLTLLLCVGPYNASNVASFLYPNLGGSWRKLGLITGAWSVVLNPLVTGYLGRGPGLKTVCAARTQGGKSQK
Test: Agonist action on GPR40 of human origin (Ca2+ fluorescence in CHO cells)
Type: cell-based
Settings: CHO cell strain stably expressing GPR40 of human origin; Ca2+ concentration fluctuation, fluorescent calcium indicator
pEC50: −log10 of the molar value.
readout-kind: pEC50

### Prompt Tell me pEC50 reported for Cc1cc(OCCC(C)(C)O)cc(C)c1-c1cccc(COc2ccc(-c3cc(O)n[s+]3[O-])cc2)c1C (stereo not drawn) [Example 13]
### Response > 6.52

### Prompt Identify the reported pEC50 for the following entry. [O-][s+]1nc(O)cc1-c1ccc(OC2CCc3c(Cl)cccc32)cc1 (stereo not drawn)
### Response > 6.52

### Prompt Look up and report measured pEC50 for this entry: CCOCCOc1cc(C)c(-c2cccc(COc3ccc(-c4cc(O)n[s+]4[O-])cc3)c2)c(C)c1 (stereo not drawn)
### Response > 6.52

### Prompt // fetch pEC50 given entry Cc1cc(OC2CCS(=O)(=O)CC2)cc(C)c1-c1cccc(COc2ccc(-c3cc(O)n[s+]3[O-])cc2)c1C (stereo not drawn)
### Response > 6.52

### Prompt Item Cc1cc(OCC[C@@H](C)O)cc(C)c1-c1cccc(COc2ccc(-c3cc(O)n[s+]3[O-])cc2)c1C (stereo partly drawn) : provide pEC50
### Response > 6.52

### Prompt For the compound [O-][s+]1nc(O)cc1-c1ccc(OCCc2cccc(Oc3ccccc3)c2)cc1 (stereo not drawn) , give its reported pEC50.
### Response 5.52 to 6.52

### Prompt Supply measured pEC50 of CCOCCOc1cc(C)c(-c2cccc(COc3ccc(-c4cc(O)n[s+]4[O-])cc3)c2)c(C)n1 (stereo not drawn) in your reply.
### Response > 6.52

### Prompt Using the record for Cc1nc(OCCC(C)(C)O)ccc1-c1cccc2c1CC[C@H]2Oc1ccc(-c2cc(O)n[s+]2[O-])cc1 (single isomer, unassigned) , state its measured pEC50.
### Response > 6.52

### Prompt Supply recorded pEC50 for [O-][s+]1nc(O)cc1-c1ccc(OC2CCc3c(OCc4ccccc4)cccc32)cc1 (stereo not drawn) here.
### Response > 6.52

### Prompt Return the recorded pEC50 value; entry: Cc1nc(OCCO)ccc1-c1cccc(COc2ccc(-c3cc(O)n[s+]3[O-])cc2)c1C (stereo not drawn)
### Response 5.52 to 6.52

### Prompt Quote pEC50 reported for [O-][s+]1nc(O)cc1-c1ccc(O[C@@H]2CCc3c(-c4cccnc4)cccc32)cc1 (single isomer, unassigned) please.
### Response > 6.52

### Prompt Specify pEC50 for Cc1cc(OCCCS(C)(=O)=O)cc(C)c1-c1cccc(COc2ccc(-c3cc(O)n[s+]3[O-])cc2)c1 (stereo not drawn) and stop.
### Response > 6.52

### Prompt Specify measured pEC50 for [O-][s+]1nc(O)cc1-c1ccc(OC2CCOc3cc(C(F)(F)F)ccc32)cc1 (stereo not drawn) .
### Response 5.52 to 6.52

### Prompt Tell me its pEC50 given [O-][s+]1nc(O)cc1-c1ccc(OCc2cccc(Cl)c2)cc1 (single isomer, unassigned) as the entry.
### Response > 6.52

### Prompt Specify reported pEC50 for the compound shown: [O-][s+]1nc(O)cc1-c1ccc(COCc2cccc(Br)c2)cc1 (stereo not drawn)
### Response 5.52 to 6.52

====

Target: GPR40 of human origin (Homo sapiens, UniProt O14842)
Experiment: Agonist action on GPR40 of human origin (Ca2+ fluorescence in CHO cells)
Settings: CHO cell strain stably expressing GPR40 of human origin; Ca2+ concentration fluctuation, fluorescent calcium indicator
pEC50: −log10 of the molar value.
readout-kind: pEC50

### Prompt Please indicate pEC50 recorded for [O-][s+]1nc(O)cc1-c1ccc(OC2CCc3c(OC4CCCCC4)cccc32)cc1 (stereo not shown) [Example 131]
### Response > 6.52

### Prompt For the compound CCOCCOc1cc(C)c(-c2cccc(COc3ccc(-c4cc(O)n[s+]4[O-])cc3)c2)c(C)c1F (stereo not shown) [Example 22] , report pEC50.
### Response > 6.52

### Prompt Supply pEC50 value. Item: Cc1cccc(C)c1-c1cccc2c1CC[C@H]2Oc1ccc(-c2cc(O)n[s+]2[O-])cc1 (single isomer, unassigned) [Example 107]
### Response > 6.52

### Prompt Report measured pEC50; entry is Cc1cc(OCCCNS(C)(=O)=O)cc(C)c1-c1cccc(COc2ccc(-c3cc(O)n[s+]3[O-])cc2)c1 (stereo not shown) [Example 72]
### Response > 6.52

### Prompt Tell me its pEC50 given [O-][s+]1nc(O)cc1-c1ccc(OC2CCc3c2cccc3C(F)(F)F)cc1 (stereo not shown) [Example 69] as the entry.
### Response > 6.52

### Prompt Hello, please tell me recorded pEC50 for this one: Cc1cc(OCCCO)cc(C)c1-c1cccc(COc2ccc(-c3cc(O)n[s+]3[O-])cc2)c1 (stereo not shown) [Example 47]
### Response > 6.52

### Prompt Fill in pEC50 for record [O-][s+]1nc(O)cc1-c1ccc(OCc2cccc3c2OCC3)cc1 (single isomer, unassigned) [Example 95]
### Response 5.52 to 6.52

### Prompt Hello, please tell me recorded pEC50 for this one: CC1(C)CCC(C)(C)c2cc(COc3ccc(-c4cc(O)n[s+]4[O-])cc3)ccc21 (stereo not shown) [Example 85]
### Response > 6.52

### Prompt In one line, give reported pEC50 of the entry Cc1cc(OCC2(C)COC2)c(F)c(C)c1-c1cccc(COc2ccc(-c3cc(O)n[s+]3[O-])cc2)c1 (stereo not shown) [Example 43] .
### Response > 6.52

### Prompt Annotate the compound [O-][s+]1nc(O)cc1-c1ccc(O[C@@H]2CCc3c(-c4cccnc4C(F)(F)F)cccc32)cc1 (single isomer, unassigned) [Example 117] with its measured pEC50.
### Response 5.52 to 6.52

### Prompt Supply measured pEC50 of [O-][s+]1nc(O)cc1-c1ccc(O[C@H]2CCc3c(Br)cccc32)cc1 (stereo partly shown) [Example 67] in your reply.
### Response 5.52 to 6.52

### Prompt # return recorded pEC50 for entry Cc1cc(OCCC(C)(C)O)ncc1-c1cccc(COc2ccc(-c3cc(O)n[s+]3[O-])cc2)c1C (stereo not shown) [Example 10]
### Response > 6.52

### Prompt Give pEC50 for [O-][s+]1nc(O)cc1-c1ccc(OCc2cccc(N3CCC(F)(F)CC3)c2)cc1 (single isomer, unassigned) [Example 93]
### Response 5.52 to 6.52

### Prompt Read the entry [O-][s+]1nc(O)cc1-c1ccc(OCc2cccc(Cl)c2Cl)cc1 (stereo not shown) [Example 86] and write its reported pEC50.
### Response > 6.52

### Prompt Tell me pEC50 reported for [O-][s+]1nc(O)cc1-c1ccc(O[C@@H]2CCc3c(-c4ccc(N5CCCCC5)nc4)cccc32)cc1 (single isomer, unassigned) [Example 118]
### Response > 6.52

### Prompt Give reported pEC50 value for Cc1nc(OCCCN2CCCC2=O)nc(C)c1-c1cccc(COc2ccc(-c3cc(O)n[s+]3[O-])cc2)c1C (stereo not shown) [Example 37]
### Response 5.52 to 6.52

### Prompt Name the recorded pEC50 of the compound listed here: Cc1cc(OCCCN2CCCC2=O)cc(C)c1-c1cccc(COc2ccc(-c3cc(O)n[s+]3[O-])cc2)c1 (stereo not shown) [Example 33]
### Response > 6.52

### Prompt Report pEC50 for Cc1cc(OCCCS(C)(=O)=O)cc(C)c1-c1cccc2c1CC[C@H]2Oc1ccc(-c2cc(O)n[s+]2[O-])cc1 (single isomer, unassigned) [Example 138]
### Response > 6.52

### Prompt Look up and state reported pEC50 for [O-][s+]1nc(O)cc1-c1ccc(OC2COc3c2cccc3C(F)(F)F)cc1 (stereo not shown) [Example 80]
### Response > 6.52

### Prompt Write down pEC50 measured for item Cc1cc(OC[C@H](O)CO)c(F)c(C)c1-c1cccc(COc2ccc(-c3cc(O)n[s+]3[O-])cc2)c1 (stereo partly shown) [Example 59]
### Response > 6.52

### Prompt In one line, give reported pEC50 of the entry Cc1cccc(C)c1-c1cccc(COc2ccc(C3=CC(O)=NS3(=O)=O)cc2)c1 [Example 9] .
### Response 5.52 to 6.52

### Prompt Specify measured pEC50 for COc1cc(Oc2cccc3c2CCC3Oc2ccc(-c3cc(O)n[s+]3[O-])cc2)ccn1 (stereo not shown) [Example 126] .
### Response > 6.52

====

Molecular target: GPR40 of human origin (Homo sapiens)
Assay: Agonist action on GPR40 of human origin (Ca2+ fluorescence in CHO cells)
Conditions: CHO cell strain stably expressing GPR40 of human origin; Ca2+ concentration fluctuation, fluorescent calcium indicator
pEC50: −log10 of the molar value.
readout-kind: pEC50

### Prompt Tell me its pEC50 given Cc1cc(OCCC(C)(C)O)nc(C)c1-c1cccc(COc2ccc(-c3cc(O)n[s+]3[O-])cc2)c1C (centres unmarked) [Example 12] as the entry.
### Response > 6.52

### Prompt Give the value of pEC50 reported for the following: Cc1cc(OCC[C@@H](C)O)cc(C)c1-c1cccc(COc2ccc(-c3cc(O)n[s+]3[O-])cc2)c1 (some centres unmarked) [Example 63]
### Response > 6.52

### Prompt Report measured pEC50; entry is Cc1cc(OC2CCS(=O)(=O)CC2)cc(C)c1-c1cccc(COc2ccc(-c3cc(O)n[s+]3[O-])cc2)c1 (centres unmarked) [Example 28]
### Response > 6.52

### Prompt Let me know recorded pEC50 for Cc1cc(OCCCN)cc(C)c1-c1cccc(COc2ccc(-c3cc(O)n[s+]3[O-])cc2)c1 (centres unmarked) [Example 78] , thanks.
### Response > 6.52

### Prompt Please report pEC50 for the following compound: CC1(C)CC=C(c2cccc3c2CC[C@H]3Oc2ccc(-c3cc(O)n[s+]3[O-])cc2)CC1 (single isomer, unassigned) [Example 120]
### Response 5.52 to 6.52

### Prompt Find the measured pEC50 of Cc1cc(OC[C@H](O)CO)cc(C)c1-c1cccc(COc2ccc(-c3cc(O)n[s+]3[O-])cc2)c1 (some centres unmarked) [Example 55] and report it.
### Response > 6.52

### Prompt Please report the measured pEC50 for Cc1cc(OCC2(C)COC2)cc(C)c1-c1cccc(COc2ccc(-c3cc(O)n[s+]3[O-])cc2)c1C (centres unmarked) [Example 42]
### Response > 6.52

### Prompt Indicate its recorded pEC50; the compound in question is Cc1cccc(C)c1-c1cccc(COc2ccc(-c3cc(O)n[s+]3[O-])cc2)c1 (centres unmarked) [Example 8]
### Response > 6.52

### Prompt Using known records, supply pEC50 for [O-][s+]1nc(O)cc1-c1ccc(O[C@@H]2CCc3c(C4CC4)cccc32)cc1 (single isomer, unassigned) [Example 109]
### Response > 6.52

### Prompt Let me know recorded pEC50 for Cc1cc(OCCCN2CCCC2=O)nc(C)c1-c1cccc(COc2ccc(-c3cc(O)n[s+]3[O-])cc2)c1 (centres unmarked) [Example 35] , thanks.
### Response > 6.52

### Prompt Tell us which pEC50 value is on record for [O-][s+]1nc(O)cc1-c1ccc(OCc2cccc(Oc3ccccc3)c2)cc1 (centres unmarked) [Example 2]
### Response 5.52 to 6.52
